# Tested on: human GCG receptor (human, UniProt P47871 26-477)
# Sequence (P47871 26-477): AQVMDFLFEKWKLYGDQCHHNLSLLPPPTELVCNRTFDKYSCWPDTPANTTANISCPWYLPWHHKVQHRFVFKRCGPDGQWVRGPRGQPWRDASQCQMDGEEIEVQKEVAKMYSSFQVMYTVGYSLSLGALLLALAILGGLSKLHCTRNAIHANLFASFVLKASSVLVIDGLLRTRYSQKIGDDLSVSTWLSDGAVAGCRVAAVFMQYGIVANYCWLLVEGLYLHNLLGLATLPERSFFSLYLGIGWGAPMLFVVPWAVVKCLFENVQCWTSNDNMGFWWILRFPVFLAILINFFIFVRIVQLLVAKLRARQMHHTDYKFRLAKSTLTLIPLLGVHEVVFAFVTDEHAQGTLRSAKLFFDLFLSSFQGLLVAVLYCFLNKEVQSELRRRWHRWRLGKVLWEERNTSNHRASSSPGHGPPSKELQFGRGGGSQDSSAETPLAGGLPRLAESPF
# Experiment summary: cell-based or functional assay
Bridge positions count the residues as written; N and C are the ends. Square brackets hold non-standard residues; d marks the D form. Ends that are not written are not given here. * marks the point of attachment. Acetyl(2-(4-imidazolyl)) = O=C(Cc1c[nH]cn1)*; Aib = CC(C)(N)C(=O)O
Observation type: In vitro activity compared with native peptide (%) vs Glucagon (cAMP EC50)

Worked cases, In vitro activity compared with native peptide (%) vs Glucagon (cAMP EC50) given:
>>> value("{Acetyl(2-(4-imidazolyl))}-[Aib]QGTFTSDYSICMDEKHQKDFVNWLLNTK (bridge 15-19) [triple agonist of SEQ ID NO: 59]")
"< 0.1%"
>>> value("[Acetyl(2-(4-imidazolyl))]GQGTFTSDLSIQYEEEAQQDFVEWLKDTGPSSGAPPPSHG [triple agonist of SEQ ID NO: 20]")
"< 0.1%"
>>> value("Y[Aib]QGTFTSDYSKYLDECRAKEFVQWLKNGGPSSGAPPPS (bridge 16-20) [triple agonist of SEQ ID NO: 24]")
"9.3%"
>>> value("[Acetyl(2-(4-imidazolyl))][Aib]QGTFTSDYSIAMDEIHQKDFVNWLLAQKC (bridge 16-20) [triple agonist of SEQ ID NO: 92]")
"< 0.1%"
>>> value("Y[Aib]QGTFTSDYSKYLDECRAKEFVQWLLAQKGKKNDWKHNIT (bridge 16-20) [triple agonist of SEQ ID NO: 23]")
"9.3%"
>>> value("Y[Aib]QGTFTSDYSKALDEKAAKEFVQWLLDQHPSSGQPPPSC (bridge 16-20) [triple agonist of SEQ ID NO: 100]")
"12.7%"
>>> value("H[Aib]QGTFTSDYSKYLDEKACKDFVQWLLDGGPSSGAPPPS (bridge 16-20) [triple agonist of SEQ ID NO: 32]")
"1.7%"
>>> value("[Acetyl(2-(4-imidazolyl))][Aib]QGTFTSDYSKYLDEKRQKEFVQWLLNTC (bridge 16-20) [triple agonist of SEQ ID NO: 81]")
"0.3%"
>>> value("{Acetyl(2-(4-imidazolyl))}-[Aib]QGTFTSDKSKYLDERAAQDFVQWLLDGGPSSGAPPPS [triple agonist of SEQ ID NO: 62]")
"< 0.1%"
>>> value("H[Aib]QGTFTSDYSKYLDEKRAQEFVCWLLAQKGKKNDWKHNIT [triple agonist of SEQ ID NO: 28]")
"1.6%"

// each listed binder needs a value for In vitro activity compared with native peptide (%) vs Glucagon (cAMP EC50)
1. H[Aib]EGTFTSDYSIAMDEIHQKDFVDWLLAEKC (bridge 16-20) [triple agonist of SEQ ID NO: 80]
2. Y[Aib]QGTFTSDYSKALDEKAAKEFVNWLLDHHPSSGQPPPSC (bridge 16-20) [triple agonist of SEQ ID NO: 98]
3. H[Aib]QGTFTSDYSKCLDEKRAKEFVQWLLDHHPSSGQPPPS (bridge 16-20) [triple agonist of SEQ ID NO: 65]
4. [Acetyl(2-(4-imidazolyl))][Aib]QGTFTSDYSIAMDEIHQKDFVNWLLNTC (bridge 16-20) [triple agonist of SEQ ID NO: 87]
5. H[Aib]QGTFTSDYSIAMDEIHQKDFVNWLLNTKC (bridge 16-20) [triple agonist of SEQ ID NO: 35]

**Result**
1. 0%
2. 8.2%
3. 25.2%
4. < 0.1%
5. < 0.1%

// each listed binder needs a value for In vitro activity compared with native peptide (%) vs Glucagon (cAMP EC50)
1. {Acetyl(2-(4-imidazolyl))}-[Aib]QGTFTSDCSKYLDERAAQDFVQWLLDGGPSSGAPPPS [triple agonist of SEQ ID NO: 63]
2. Y[Aib]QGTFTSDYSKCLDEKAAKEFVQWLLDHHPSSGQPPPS (bridge 16-20) [triple agonist of SEQ ID NO: 68]

**Result**
1: < 0.1%; 2: 8.8%

// each listed binder needs a value for In vitro activity compared with native peptide (%) vs Glucagon (cAMP EC50)
1. Y[Aib]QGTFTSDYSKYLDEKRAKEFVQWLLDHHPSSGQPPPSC (not fully specified (bridges)) [triple agonist of SEQ ID NO: 42]
2. H[Aib]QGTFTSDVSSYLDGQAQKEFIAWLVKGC [triple agonist of SEQ ID NO: 2]
3. [Acetyl(2-(4-imidazolyl))][Aib]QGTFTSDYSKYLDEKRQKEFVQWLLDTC (bridge 16-20) [triple agonist of SEQ ID NO: 82]

**Result**
["206%", "< 0.1%", "1.1%"]

**Query** Given H[Aib]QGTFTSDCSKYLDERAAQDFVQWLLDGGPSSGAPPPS [triple agonist of SEQ ID NO: 25] , state its recorded In vitro activity compared with native peptide (%) vs Glucagon (cAMP EC50).
**Result** 0.1%
